Test system: WPMY1-TUBA1B-RELA
Test: phenotypically active (imaging signature differs from DMSO and reproducible) at any of 0.3-9 uM (binary (1 = active, 0 = inactive)); higher = active
Settings: treatment time: 24 h
QUANTITY_KIND: phenotypically active

COMPOUND	VALUE_OBSERVED
CC1(C)NC(=O)N(c2ccc([N+](=O)[O-])c(C(F)(F)F)c2)C1=O [nilutamide]	0 (inactive)
Cc1nc[nH]c1C1CCN(c2nc3cccc4c3n2CCC4=O)CC1	0 (inactive)
NS(=O)(=O)c1cc2c(cc1Cl)N=C(CSCc1ccccc1)NS2(=O)=O [benzthiazide]	0 (inactive)
O=C1NCCN1CCN1CCC(c2cn(-c3ccc(F)cc3)c3ccc(Cl)cc23)CC1	1 (active)
O=c1cc(-c2ccccc2)oc2c(O)c(O)ccc12 [7,8-Dihydroxyflavone]	1 (active)
CC(C)[C@](O)(c1ccc2cc(OC(F)F)c(OC(F)F)cc2c1)c1c[nH]nn1	0 (inactive)
C#C[C@]1(O)CC[C@H]2[C@@H]3CCc4cc(OC)ccc4[C@H]3CC[C@@]21C	0 (inactive)
Cn1c(=O)c2[nH]cnc2n(C)c1=O	0 (inactive)
COc1ccc(Cl)cc1C(=O)NCCc1ccc(S(=O)(=O)NC(=O)NC2CCCCC2)cc1 [glyburide]	0 (inactive)

====

Tested on: A549-TP53BP1-CLTA
Experiment: phenotypically active (imaging signature differs from DMSO and reproducible) at any of 0.3-9 uM (binary (1 = active, 0 = inactive)); higher = active
Conditions: treatment time: 24 h
Counter-ions that a name gives are not always drawn.
Collected phenotypically active values appear next to each entry.

MOLECULE	TESTED_ON	phenotypically active
O=C(Nc1ccncc1)c1cc([N+](=O)[O-])ccc1Cl	A549-TP53BP1-CLTA	1
CN1C(=O)CC(C)(c2ccccc2)C1=O (stereo not drawn) [methsuximide]	A549-TP53BP1-CLTA	0
O=C(Nc1cccnc1)N1CCC(Cc2cccc(Oc3ccc(C(F)(F)F)cn3)c2)CC1	A549-TP53BP1-CLTA	1
COc1cc(N2CCN(C)CC2)ccc1Nc1nccc(-c2cn(C)c3cnccc23)n1	A549-TP53BP1-CLTA	1
Clc1ccc(C(c2ccc(Cl)cc2)[n+]2ccn(CC(OCc3ccc(Cl)cc3Cl)c3ccc(Cl)cc3Cl)c2)cc1 (stereo not drawn) [Calmidazolium chloride]	A549-TP53BP1-CLTA	0
Oc1cccc(-c2nc(N3CCOCC3)c3oc4ncccc4c3n2)c1 [PI 103 hydrochloride]	A549-TP53BP1-CLTA	1
O=P(O)(O)C(O)(Cn1ccnc1)P(=O)(O)O	A549-TP53BP1-CLTA	0
COC(=O)C1=CO[C@@H](O[C@@H]2O[C@H](CO)[C@@H](O)[C@H](O)[C@H]2O)[C@H]2[C@@H]1C(=O)C[C@@H]2C	A549-TP53BP1-CLTA	0

====

Tested on: A549-ACTB-RAB5A
Experiment: lowest phenotypically active concentration; higher = less potent
Conditions: treatment time: 24 h
Reported values of lowest phenotypically active concentration for individual entries
QUANTITY_KIND: lowest phenotypically active concentration (µM)

COMPOUND	VALUE_OBSERVED
COc1ccc(S(=O)(=O)N(C(C)=O)c2ccccc2/C=C/c2cc[n+]([O-])cc2)cc1	1
CNc1nc(-c2ccc3c(N)n[nH]c3c2)cc(N2C[C@@H](C(=O)NC3CCCCC3)CC[C@H]2C)n1	1
COc1ccccc1S(=O)(=O)Nc1ccc2c(c1)CN(C)C(=O)N2	1
CN1CCc2cccc3c2[C@H]1Cc1ccc(O)c(O)c1-3 [r(-)-apomorphine]	9
